Entries and their measured Intracellular Concentration follow.
- Tested on: MDA−MB−231 cells
- measurement_protocol: Cellular uptake of Pt by ICP-MS
- Format: cell-based
- run_conditions: MDA−MB−231, 3 µM, 0 h
API: value field is a number in nmol/10^6 cells; no unit string.

The cases that follow already have their Intracellular Concentration on record.
- Cc1c(C)c2cccnc2c2ncccc12.N[C@H]1CCCC[C@@H]1N.O=[N+]([O-])[O-].O=[N+]([O-])[O-].[Pt+2]: 0.68
- Cc1cc2cccnc2c2ncccc12.N[C@H]1CCCC[C@@H]1N.O=[N+]([O-])[O-].O=[N+]([O-])[O-].[Pt+2]: 0.37
- N.N.[Cl][Pt][Cl] [Cisplatin, cisplatin]: 0.56
- N[C@H]1CCCC[C@@H]1N.O=[N+]([O-])[O-].O=[N+]([O-])[O-].[Pt+2].c1cnc2c(c1)ccc1cccnc12: 0.40
- Cc1cc2cccnc2c2ncccc12.N[C@H]1CCCC[C@@H]1N.O=[N+]([O-])[O-].O=[N+]([O-])[O-].[OH][Pt+2][OH]: 0.16
- Cc1c(C)c2cccnc2c2ncccc12.N[C@H]1CCCC[C@@H]1N.O=[N+]([O-])[O-].O=[N+]([O-])[O-].[OH][Pt+2][OH]: 0.14

Bench note, MDA−MB−231 cells: "N[C@H]1CCCC[C@@H]1N.O=[N+]([O-])[O-].O=[N+]([O-])[O-].[OH-].[OH-].[Pt+4].c1cnc2c(c1)ccc1cccnc12" , Intracellular Concentration reads 0.13

###

- System: HT29 cells
- measurement_protocol: Cellular uptake of Pt by ICP-MS
- Format: cell-based
- run_conditions: HT29, extracellular 3 µM, 1 h
endpoint_label: Intracellular/extracellular ratio
Respond using a number only.

The cases that follow already have their Intracellular/extracellular ratio on record.
* Cc1c(C)c2cccnc2c2ncccc12.N[C@H]1CCCC[C@@H]1N.O=[N+]([O-])[O-].O=[N+]([O-])[O-].[Pt+2] | 216.82
* N[C@H]1CCCC[C@@H]1N.O=[N+]([O-])[O-].O=[N+]([O-])[O-].[OH-].[OH-].[Pt+4].c1cnc2c(c1)ccc1cccnc12 | 28.08

We next turn to a different molecule, shown below.
Bench note, HT29 cells: "Cc1cc2cccnc2c2ncccc12.N[C@H]1CCCC[C@@H]1N.O=[N+]([O-])[O-].O=[N+]([O-])[O-].[OH][Pt+2][OH]" , Intracellular/extracellular ratio reads 44.59

###

- System: MDA−MB−231 cells
- measurement_protocol: Cellular uptake of Pt by ICP-MS
- Format: cell-based
- run_conditions: MDA−MB−231, 3 µM, 24 h
endpoint_label: Intracellular Concentration (nmol/10^6 cells)
API: value field is a number in nmol/10^6 cells; no unit string.

The cases that follow already have their Intracellular Concentration on record.
* Cc1c(C)c2cccnc2c2ncccc12.N[C@H]1CCCC[C@@H]1N.O=[N+]([O-])[O-].O=[N+]([O-])[O-].[OH][Pt+2][OH] [Pt^IV56MESS(OH)2] | 2.74
* N.N.[Cl][Pt][Cl] [Cisplatin, cisplatin] | 0.24
* N[C@H]1CCCC[C@@H]1N.O=[N+]([O-])[O-].O=[N+]([O-])[O-].[Pt+2].c1cnc2c(c1)ccc1cccnc12 | 3.01

We next turn to a different molecule, shown below.
Reported Intracellular Concentration for "N[C@H]1CCCC[C@@H]1N.O=[N+]([O-])[O-].O=[N+]([O-])[O-].[OH-].[OH-].[Pt+4].c1cnc2c(c1)ccc1cccnc12" was 0.78

###

- System: HT29 cells
- measurement_protocol: Cellular uptake of Pt by ICP-MS
- Type: cell-based
- run_conditions: HT29, extracellular 3 µM, 6 h
endpoint_label: Intracellular/extracellular ratio
Respond using a number only.

* Cc1c(C)c2cccnc2c2ncccc12.N[C@H]1CCCC[C@@H]1N.O=[N+]([O-])[O-].O=[N+]([O-])[O-].[Pt+2] | 793.80
* Cc1cc2cccnc2c2ncccc12.N[C@H]1CCCC[C@@H]1N.O=[N+]([O-])[O-].O=[N+]([O-])[O-].[Pt+2] | 730.89
* N[C@H]1CCCC[C@@H]1N.O=[N+]([O-])[O-].O=[N+]([O-])[O-].[Pt+2].c1cnc2c(c1)ccc1cccnc12 | 935.29
* N[C@H]1CCCC[C@@H]1N.O=[N+]([O-])[O-].O=[N+]([O-])[O-].[OH-].[OH-].[Pt+4].c1cnc2c(c1)ccc1cccnc12 | 121.19

Bench note, HT29 cells: "Cc1cc2cccnc2c2ncccc12.N[C@H]1CCCC[C@@H]1N.O=[N+]([O-])[O-].O=[N+]([O-])[O-].[OH][Pt+2][OH]" , Intracellular/extracellular ratio reads 104.08

Bench note, HT29 cells: "Cc1c(C)c2cccnc2c2ncccc12.N[C@H]1CCCC[C@@H]1N.O=[N+]([O-])[O-].O=[N+]([O-])[O-].[OH][Pt+2][OH]" , Intracellular/extracellular ratio reads 273.54

###

- Test system: HT29 cells
- measurement_protocol: Cellular uptake of Pt by ICP-MS
- Format: cell-based
- run_conditions: HT29, 3 µM, 12 h
endpoint_label: Intracellular Concentration (nmol/10^6 cells)
API: value field is a number in nmol/10^6 cells; no unit string.

- N.N.[Cl][Pt][Cl] [Cisplatin, cisplatin]: 0.57
- N[C@H]1CCCC[C@@H]1N.O=[N+]([O-])[O-].O=[N+]([O-])[O-].[OH-].[OH-].[Pt+4].c1cnc2c(c1)ccc1cccnc12: 3.64
- N[C@H]1CCCC[C@@H]1N.O=[N+]([O-])[O-].O=[N+]([O-])[O-].[Pt+2].c1cnc2c(c1)ccc1cccnc12: 12.59
- Cc1c(C)c2cccnc2c2ncccc12.N[C@H]1CCCC[C@@H]1N.O=[N+]([O-])[O-].O=[N+]([O-])[O-].[OH][Pt+2][OH] [Pt^IV56MESS(OH)2]: 5.43
- Cc1cc2cccnc2c2ncccc12.N[C@H]1CCCC[C@@H]1N.O=[N+]([O-])[O-].O=[N+]([O-])[O-].[Pt+2] [Pt^II5MESS]: 19.18

Reported Intracellular Concentration for Cc1c(C)c2cccnc2c2ncccc12.N[C@H]1CCCC[C@@H]1N.O=[N+]([O-])[O-].O=[N+]([O-])[O-].[Pt+2] [Pt^II56MESS] was 17.67

Reported Intracellular Concentration for Cc1cc2cccnc2c2ncccc12.N[C@H]1CCCC[C@@H]1N.O=[N+]([O-])[O-].O=[N+]([O-])[O-].[OH][Pt+2][OH] [Pt^IV5MESS(OH)2] was 5.05

###

- Test system: MDA−MB−231
- measurement_protocol: WST-1 cytotoxicity, 72 h
- Assay type: cell-based
- run_conditions: MDA−MB−231, 72 h, mean ± SEM
- Procedure: Cells were seeded in 96-well flat-bottom culture plates at a concentration of 1000 cells per well. […] After 72 h, the medium was removed and replaced with new medium. The cell viability reagent WST-1 (10 µL, Roche Diagnostics, Indianapolis, IN, USA) was added to each well. After an hour, the absorbance was measured at 450 nm using a versatile microplate reader (Bio-strategy, Campbellfield, VIC, Australia). Three separate experiments were performed, each with n = 3 replicates. […]
pIC50: −log10 of the molar value.
If the reported pIC50 equals or exceeds 6, assign MET. If not, assign NOT MET.

- N[C@H]1CCCC[C@@H]1N.O=[N+]([O-])[O-].O=[N+]([O-])[O-].[OH-].[OH-].[Pt+4].c1cnc2c(c1)ccc1cccnc12: NOT MET

Q. I'd appreciate it if you could say whether "Cc1cc2cccnc2c2ncccc12.N[C@H]1CCCC[C@@H]1N.O=[N+]([O-])[O-].O=[N+]([O-])[O-].[OH][Pt+2][OH]" has pIC50 at least equal to 6.
A. NOT MET

Q. I'd appreciate it if you could say whether "Cc1c(C)c2cccnc2c2ncccc12.N[C@H]1CCCC[C@@H]1N.O=[N+]([O-])[O-].O=[N+]([O-])[O-].[Pt+2]" has pIC50 at least equal to 6.
A. MET

Q. I'd appreciate it if you could say whether N.N.[Cl][Pt][Cl] [Cisplatin, cisplatin] has pIC50 at least equal to 6.
A. NOT MET

Q. I'd appreciate it if you could say whether "Cc1cc2cccnc2c2ncccc12.N[C@H]1CCCC[C@@H]1N.O=[N+]([O-])[O-].O=[N+]([O-])[O-].[Pt+2]" has pIC50 at least equal to 6.
A. MET

###

- System: HT29 cells
- measurement_protocol: Western blot protein expression
- Format: cell-based
- run_conditions: HT29, IC50, 72 h, representative blot Figure S28C
Entries and their measured α-tubulin/GAPDH normalized to control (1) follow.
Respond using a number only.

The cases that follow already have their α-tubulin/GAPDH normalized to control (1) on record.
* N[C@H]1CCCC[C@@H]1N.O=[N+]([O-])[O-].O=[N+]([O-])[O-].[OH-].[OH-].[Pt+4].c1cnc2c(c1)ccc1cccnc12 | 0.4054
* N[C@H]1CCCC[C@@H]1N.O=[N+]([O-])[O-].O=[N+]([O-])[O-].[Pt+2].c1cnc2c(c1)ccc1cccnc12 | 0.09086
* N.N.[Cl][Pt][Cl] [Cisplatin, cisplatin] | 0.8201
* Cc1c(C)c2cccnc2c2ncccc12.N[C@H]1CCCC[C@@H]1N.O=[N+]([O-])[O-].O=[N+]([O-])[O-].[OH][Pt+2][OH] | 0.5719
* Cc1cc2cccnc2c2ncccc12.N[C@H]1CCCC[C@@H]1N.O=[N+]([O-])[O-].O=[N+]([O-])[O-].[OH][Pt+2][OH] | 0.1518
* Cc1cc2cccnc2c2ncccc12.N[C@H]1CCCC[C@@H]1N.O=[N+]([O-])[O-].O=[N+]([O-])[O-].[Pt+2] | 0.06789

Reported α-tubulin/GAPDH normalized to control (1) for "Cc1c(C)c2cccnc2c2ncccc12.N[C@H]1CCCC[C@@H]1N.O=[N+]([O-])[O-].O=[N+]([O-])[O-].[Pt+2]" was 0.04906
